Assignment: determine reported koff for the given binders.
- Test target: T1, recombinant hIL-6R protein, monomeric form (human, UniProt P08887 20-358)
- T1 construct: also called monomeric hIL-6R; Human IL6R
- T1 sequence: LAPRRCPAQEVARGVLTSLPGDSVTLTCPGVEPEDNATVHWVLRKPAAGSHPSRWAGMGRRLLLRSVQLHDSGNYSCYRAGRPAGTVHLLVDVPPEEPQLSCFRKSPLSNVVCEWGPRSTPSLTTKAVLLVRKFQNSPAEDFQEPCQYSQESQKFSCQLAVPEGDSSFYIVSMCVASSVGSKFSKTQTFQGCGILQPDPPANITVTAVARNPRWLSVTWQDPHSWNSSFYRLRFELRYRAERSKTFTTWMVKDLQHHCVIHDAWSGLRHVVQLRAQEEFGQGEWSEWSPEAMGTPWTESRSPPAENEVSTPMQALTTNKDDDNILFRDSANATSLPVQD
- Protocol: SPR (BIAcore), antibody captured on goat anti-human Fc, monomeric hIL-6R 1.56-12.5 nM
Numbers only, in s⁻¹.

VV6A9-5 hIgG1 (antibody, V domains shown, Human IgG1 constant region) VH: EVQLVESGGGLVQPGRSLRLSCAASGFTFDDYALHWVRQAPGKGLEWVSGVSWNGGRIGYADSVKGRFTISRDNAKNSLFLQMNSLRVEDTALYYCAKGRDAFDIWGQGTLVTVSS VL: DIQMTQSPSSVSASVGDRVTITCRASQGISSWLAWYQQKPGKAPKLLIYAASSLQSGVPSRFSGSGSGTDFTLTISSLQPEDFATYYCQHAYSFPYTFGQGTKLEIK	8.87e-05

Report koff for VQ8A9-6 hIgG1 (antibody, V domains shown, Human IgG1 constant region) VH: EVQLVESGGNLVQPGRSLRLSCAASGFIFDDYAMHWVRQAPGKGLEWVSGISWNSGSIGYADSVKGRFTISRDNAKNSLYLQMNSLRAEDTALYYCAKDGGSSWLPFVYYYGMDVWGQGTTVTVSS VL: EIVMTQSPATLSVSPGERATLSCRASQSISSNFAWYQQKPGQAPRLLIYGASTRATGIPARFSGSGSGTDFTLTISSLQSEDFAVYYCQQYSSWPPYTFGQGTKLEIK 0.00026

The measured values listed here are drawn from patent US20070280945A1.
